B1: LINE1-full (parent)
chain: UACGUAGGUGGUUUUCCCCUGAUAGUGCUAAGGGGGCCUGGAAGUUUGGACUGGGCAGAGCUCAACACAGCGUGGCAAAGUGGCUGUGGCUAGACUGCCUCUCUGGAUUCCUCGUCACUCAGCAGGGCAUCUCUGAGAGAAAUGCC

Variants of: B1
assay remarks: self-cleavage, relative activity (ratio to wild type); higher = more cleavage; in vitro, sequencing; the parent is a self-cleaving ribozyme
The entries below come with measured self-cleavage values attached.
Form: value (number only, do not type unit).

Some entries whose results are on file:
U26C U102C : 1.22
U46A A59G : 0.07
G125U A142G : 1.33
A59U U73C : 1.27
C113U : 0.98

The recorded self-cleavage for entry U52C U87G equals 0

The recorded self-cleavage for entry G33C A65G equals 0

The recorded self-cleavage for entry U100C A107C equals 2.87

The recorded self-cleavage for entry G74A A142G equals 1.1

The recorded self-cleavage for entry A42C A138G equals 1.05

The recorded self-cleavage for entry U102A C103U equals 1.41

The recorded self-cleavage for entry U47G A92G equals 0.17

The recorded self-cleavage for entry A65U U102A equals 0.17

The recorded self-cleavage for entry U1C A24C equals 0.91

Every entry's value here was drawn from the RNAGym collection of RNA variant scans (doi:10.7554/elife.90254).
